test: Thermodynamic solubility of the compound at pH 7.4 after 24 hrs by UPLC-MS analysis; type: physicochemical; details: buffer, read-out: Therm_solubility
Observed Property: solubility thermodynamic at 24 h (µM)

CC(C)C[C@@H]1NC(=O)[C@@H](CCC(=O)N2CCCC2)NC(=O)[C@H](CC(C)C)NC(=O)[C@@H](CC(C)C)NC(=O)[C@H]2CCCN2C(=O)[C@H](CC(C)C)NC1=O | 580
CC(C)C[C@@H]1NC(=O)[C@@H](CC(C)C)NC(=O)[C@@H](CCC(=O)N2CCCC2)NC(=O)[C@@H](CC(C)C)NC(=O)[C@H]2CCCN2C(=O)[C@H](CC(C)C)NC1=O | 550
CC(C)C[C@@H]1NC(=O)[C@@H](CCC(=O)N2CCCC2)NC(=O)[C@@H](CC(C)C)NC(=O)[C@@H](CC(C)C)NC(=O)[C@@H](CC(C)C)NC(=O)[C@H]2CCCN2C1=O | 550

a. CC(C)C[C@@H]1NC(=O)[C@@H](CC(C)C)NC(=O)[C@H](CCC(=O)N2CCCC2)NC(=O)[C@@H](CC(C)C)NC(=O)[C@H]2CCCN2C(=O)[C@H](CC(C)C)NC1=O
b. CC(C)C[C@@H]1NC(=O)[C@@H](CC(C)C)NC(=O)[C@H](CC(C)C)NC(=O)[C@@H](CCC(=O)N2CCCC2)NC(=O)[C@H]2CCCN2C(=O)[C@H](CC(C)C)NC1=O
-- ask In the pair a and b , the larger recorded solubility thermodynamic at 24 h belongs to which? I would appreciate it if you answered with the label of your choice.
-- reply b
(b: 730 µM, a: 140 µM)
